All figures here come from patent US12729377B2.

Tested on: ANGPTL3 gene
assayOverview: Example 7: serum LDL in mice
Type: in vivo
Set-up: key: ratio: (level/pre-treatment day -1 level) ÷ mean of D5W control group
conditionLabel: Day 8; 0.5 mg/kg single SC injection day 1; female C57bl/6 mice, n=3; ratio to D5W control
In the oligonucleotide strings, read from the 5' end, every base follows the letter of its sugar. An asterisk marks phosphorothioate; unmarked linkages are phosphodiester. Other units and linkages are bracketed, terminal groups are in braces. A string of capitals states the bases alone. {NAG37} = tridentate N-acetyl-galactosamine targeting ligand, structure (NAG37)s; [invAb] = inverted abasic unit; m = 2'-O-methyl; f = 2'-fluoro
Output t for Avg LDL, normalized to pre-treatment and control not less than 1; output f otherwise.

substance: AD05777: RNAi agent duplex: antisense AM07235-AS, sense AM07610-SS (antisense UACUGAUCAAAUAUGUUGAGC; sense GCUCAACNUNUUUGAUCAGUA; (NAG37)s GalNAc ligand; RNAi agent antisense strand modified sequence; RNAi agent sense strand modified sequence; modified_base 8, 10 n = 2′-O-methyl-2-aminoadenosine-3′-phosphate)
labelClass: f
//
substance: AD05418: RNAi agent duplex: antisense AM07159-AS, sense AM07158-SS (antisense mU*fU*mU*fGmAfAmUfUmAfAmUfGmUfCmCfAmUfGmGfG*mU; sense {NAG37}*[invAb]*mAmCmCmCmAmUmGmGfAfCfAmUmUmAmAmUmUmCmAmAmA*[invAb])
labelClass: t
//
substance: AD05308: RNAi agent duplex: antisense AM07003-AS, sense AM07002-SS (chain 1 mU*fG*mU*fUmGfAmAfUmUfAmAfUmGfUmCfCmAfUmGfG*mA; chain 2 {NAG37}*[invAb]*mUmCmCmAmUmGmGmAfCfAfUmUmAmAmUmUmCmAmAmCmA*[invAb])
labelClass: f
//
substance: AD05488: RNAi agent duplex: antisense AM07235-AS, sense AM07234-SS (antisense mU*fA*mC*fUmGfAmUfCmAfAmAfUmAfUmGfUmUfGmAfG*mC; sense {NAG37}*[invAb]*mGmCmUmCmAmAmCmAfUfAfUmUmUmGmAmUmCmAmGmUmA*[invAb])
labelClass: f
